# Assay target: CST (CTC1-STN1-TEN1) (human, UniProt Q2NKJ3;Q9H668;Q86WV5 1-1217;1-368;1-123)
# Sequence (Q2NKJ3 whole entry, chain 1 of 3): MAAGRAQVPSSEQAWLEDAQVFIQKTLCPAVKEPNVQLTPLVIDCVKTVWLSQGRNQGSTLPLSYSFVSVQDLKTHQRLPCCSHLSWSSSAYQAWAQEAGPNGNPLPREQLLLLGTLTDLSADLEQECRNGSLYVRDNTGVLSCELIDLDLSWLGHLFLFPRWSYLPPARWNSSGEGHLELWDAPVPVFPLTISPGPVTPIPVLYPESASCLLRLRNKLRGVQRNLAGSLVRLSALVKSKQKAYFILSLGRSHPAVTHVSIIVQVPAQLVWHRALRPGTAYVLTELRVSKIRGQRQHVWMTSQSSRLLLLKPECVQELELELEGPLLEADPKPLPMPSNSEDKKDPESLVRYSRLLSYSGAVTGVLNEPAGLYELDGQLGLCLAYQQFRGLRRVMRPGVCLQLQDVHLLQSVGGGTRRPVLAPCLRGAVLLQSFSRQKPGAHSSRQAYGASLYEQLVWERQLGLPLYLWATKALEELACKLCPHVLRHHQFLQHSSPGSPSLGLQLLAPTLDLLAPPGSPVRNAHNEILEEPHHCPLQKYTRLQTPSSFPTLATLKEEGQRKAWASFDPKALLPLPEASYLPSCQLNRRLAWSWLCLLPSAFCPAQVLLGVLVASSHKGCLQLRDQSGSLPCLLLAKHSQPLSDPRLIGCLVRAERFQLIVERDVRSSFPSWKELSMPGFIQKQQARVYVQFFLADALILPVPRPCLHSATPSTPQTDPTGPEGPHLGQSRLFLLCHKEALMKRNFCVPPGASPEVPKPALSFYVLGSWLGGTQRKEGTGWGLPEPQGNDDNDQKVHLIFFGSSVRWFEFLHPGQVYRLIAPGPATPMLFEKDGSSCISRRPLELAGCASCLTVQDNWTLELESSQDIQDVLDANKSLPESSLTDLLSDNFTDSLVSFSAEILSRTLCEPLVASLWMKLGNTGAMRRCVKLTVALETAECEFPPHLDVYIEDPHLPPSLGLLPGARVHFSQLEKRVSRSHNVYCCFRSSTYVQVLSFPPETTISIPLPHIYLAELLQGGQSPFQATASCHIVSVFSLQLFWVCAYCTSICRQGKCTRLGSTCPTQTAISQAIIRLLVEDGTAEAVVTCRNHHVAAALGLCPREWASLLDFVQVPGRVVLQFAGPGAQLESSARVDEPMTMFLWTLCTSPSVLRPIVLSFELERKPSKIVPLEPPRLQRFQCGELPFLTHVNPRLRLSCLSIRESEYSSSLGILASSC
# Sequence (Q9H668 whole entry, chain 2 of 3): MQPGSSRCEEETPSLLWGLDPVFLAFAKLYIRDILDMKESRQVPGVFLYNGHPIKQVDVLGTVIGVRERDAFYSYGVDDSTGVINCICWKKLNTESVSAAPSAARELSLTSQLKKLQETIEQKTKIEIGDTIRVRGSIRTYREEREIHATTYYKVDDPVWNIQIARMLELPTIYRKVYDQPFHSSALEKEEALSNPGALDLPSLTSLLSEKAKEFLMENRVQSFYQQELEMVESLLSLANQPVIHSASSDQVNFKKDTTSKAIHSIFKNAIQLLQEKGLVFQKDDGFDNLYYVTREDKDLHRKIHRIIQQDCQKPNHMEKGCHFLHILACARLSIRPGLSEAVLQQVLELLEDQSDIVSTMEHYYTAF
# Sequence (Q86WV5 whole entry, chain 3 of 3): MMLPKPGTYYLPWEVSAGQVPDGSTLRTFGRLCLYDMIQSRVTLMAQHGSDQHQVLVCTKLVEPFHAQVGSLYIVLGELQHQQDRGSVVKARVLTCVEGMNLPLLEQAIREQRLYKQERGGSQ
# Assay notes: fluorescence anisotropy; 200 mM LiCl; FA: 200 mM NaCl, KCl or LiCl, 20 mM HEPES pH 7.4, 1 mM DTT, 22-25 C, 375 or 750 pM oligo, Kd,app +/- SEM; EMSA: 20 mM HEPES pH 7.4, 200 mM KCl, 1 nM 32P oligo
# Protocol conditions: protein: recombinant; tags: 2xFLAG N-term on CTC1; 6xHis N-term on STN1 and TEN1; copies: 1;1;1; label: 5' fluorescein; hybrid 2 G4 in KCl; linear in LiCl
Endpoint label: pKd
On this scale, pKd is minus log10 of a concentration expressed in M (mol/L).

Q. Using the record for TAGGGTTAGGGTTAGGGTTAGGGTT (structured_DNA) [2JSL] , state its measured pKd.
A. 8.08
